Experiment: chemical genetic growth profiling, strain panel (AID 1159580);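 further: tested at 20 µM; growth read once vehicle control cultures reached saturation at 30 °C; 1 = growth at the plate median or of vehicle wells; lower values mean less growth of the strain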
Settings: S. cerevisiae deletion strains, growth OD, locus YOR001W, strain rrp6, stronger effect = lower value
Out of some 5,500 compounds screened, about 2,000 (36%) were called active. Not shown: some 18% with an inconclusive outcome. This is one part of the list.
Each item that follows carries a reported normalized growth.
// response body must contain only the number

CC(=O)O[C@@H]1c2c(ccc3ccc(=O)oc23)OC(C)(C)[C@@H]1OC(=O)CC(C)C = 1.03
C/C=C(\C)C(=O)O[C@@H]1c2c(ccc3ccc(=O)oc23)OC(C)(C)[C@@H]1OC(C)=O = 1.02
CC1Cc2ccccc2N1NC(=O)c1ccc(Cl)c(S(N)(=O)=O)c1 (configuration not stated) = 0.975

Tell me normalized growth reported for CC1(C)Oc2ccc3ccc(=O)oc3c2CC1O (configuration not stated)
1.02

Tell me normalized growth reported for `CCCc1nn(C)c2c(=O)[nH]c(-c3cc(S(=O)(=O)N4CCN(C)CC4)ccc3OCC)nc12`
0.999
